Data provenance: patent US20050215503

# EXPERIMENTAL SYSTEM: HIF-1 (HIF-1alpha/HIF-1beta (ARNT) heterodimer) (Homo sapiens?, UniProt Q16665;P27540 Q16665:1-826,P27540:2-789)
# Sequence (Q16665 whole entry, chain 1 of 2): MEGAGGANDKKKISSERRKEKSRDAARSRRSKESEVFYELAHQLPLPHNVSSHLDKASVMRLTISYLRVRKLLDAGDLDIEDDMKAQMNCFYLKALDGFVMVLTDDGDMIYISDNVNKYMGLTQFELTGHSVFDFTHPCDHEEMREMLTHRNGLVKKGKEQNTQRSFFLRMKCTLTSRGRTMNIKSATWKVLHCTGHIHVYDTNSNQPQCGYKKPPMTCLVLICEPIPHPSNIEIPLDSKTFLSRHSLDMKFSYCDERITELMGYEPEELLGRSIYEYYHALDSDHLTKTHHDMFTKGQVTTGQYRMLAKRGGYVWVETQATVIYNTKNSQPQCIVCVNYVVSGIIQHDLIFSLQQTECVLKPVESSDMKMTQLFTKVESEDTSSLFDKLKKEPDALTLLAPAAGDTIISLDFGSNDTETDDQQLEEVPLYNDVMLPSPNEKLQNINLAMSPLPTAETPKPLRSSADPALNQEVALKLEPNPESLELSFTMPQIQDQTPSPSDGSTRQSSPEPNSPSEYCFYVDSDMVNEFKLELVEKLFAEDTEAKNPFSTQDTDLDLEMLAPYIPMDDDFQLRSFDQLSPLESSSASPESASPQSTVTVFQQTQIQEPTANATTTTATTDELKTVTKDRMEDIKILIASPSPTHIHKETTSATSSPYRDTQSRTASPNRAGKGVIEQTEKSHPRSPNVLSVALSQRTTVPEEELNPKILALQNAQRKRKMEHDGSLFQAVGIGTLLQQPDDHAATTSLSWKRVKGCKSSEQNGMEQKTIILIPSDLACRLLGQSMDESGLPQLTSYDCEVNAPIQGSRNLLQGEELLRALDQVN
# Sequence (P27540 2-789, chain 2 of 2): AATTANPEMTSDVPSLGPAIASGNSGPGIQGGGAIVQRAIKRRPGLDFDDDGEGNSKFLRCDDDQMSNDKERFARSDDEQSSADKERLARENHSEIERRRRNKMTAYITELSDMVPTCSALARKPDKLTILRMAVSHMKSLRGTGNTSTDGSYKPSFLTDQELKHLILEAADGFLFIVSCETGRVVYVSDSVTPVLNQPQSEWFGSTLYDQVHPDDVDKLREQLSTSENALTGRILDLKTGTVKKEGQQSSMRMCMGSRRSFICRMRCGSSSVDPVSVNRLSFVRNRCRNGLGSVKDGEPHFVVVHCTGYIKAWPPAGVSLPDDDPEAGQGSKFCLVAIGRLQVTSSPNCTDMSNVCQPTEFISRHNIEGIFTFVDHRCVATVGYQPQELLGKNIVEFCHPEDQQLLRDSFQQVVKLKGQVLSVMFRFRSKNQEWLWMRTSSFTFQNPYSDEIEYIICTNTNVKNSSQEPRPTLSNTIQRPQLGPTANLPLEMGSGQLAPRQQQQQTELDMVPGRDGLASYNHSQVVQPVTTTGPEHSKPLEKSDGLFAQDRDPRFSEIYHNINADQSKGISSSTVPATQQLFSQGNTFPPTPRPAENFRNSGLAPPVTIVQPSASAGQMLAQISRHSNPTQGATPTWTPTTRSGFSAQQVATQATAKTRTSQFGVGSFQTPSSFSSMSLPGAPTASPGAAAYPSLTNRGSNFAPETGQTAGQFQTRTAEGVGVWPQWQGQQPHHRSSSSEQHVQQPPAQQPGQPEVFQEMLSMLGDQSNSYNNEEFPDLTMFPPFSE
# PROCEDURE TEXT: competition; TransAM
# TEST PARAMETERS: protein: extract; tags: none (endogenous, nuclear extract)
Cut-off 1 ratio on binding signal: below means Met, at or above means Not met.

- BINDER: "decoy 809/810 (dsDNA) DNA 1: AGGGCCGGACGTGGGGCCCC DNA 2: GGGGCCCCACGTCCGGCCCT"
  CATEGORY: "Not met"
- BINDER: "decoy 935 (dsDNA) DNA 1: CCAGCGTAAGTGCCTCAGG DNA 2: CCTGAGGCACTTACGCTGG"
  CATEGORY: "Not met"
- BINDER: "decoy 985 (dsDNA) DNA 1: CCAGCGTACGTGACTCAGG DNA 2: CCTGAGTCACGTACGCTGG"
  CATEGORY: "Met"
- BINDER: "decoy 891/892 (dsDNA) DNA 1: GGCTGCTGCATACGTGCAGGTC DNA 2: GACCTGCACGTATGCAGCAGCC"
  CATEGORY: "Not met"
- BINDER: "decoy 977 (dsDNA) DNA 1: CCAACGTACGTGCCTCAGG DNA 2: CCTGAGGCACGTACGTTGG"
  CATEGORY: "Not met"
- BINDER: "decoy 879/880 (dsDNA) DNA 1: GGCTGCTGCAGACGTGCAGGTC DNA 2: GACCTGCACGTCTGCAGCAGCC"
  CATEGORY: "Not met"
